# test.target: UniProtKB P48048
# Sequence (P48048 whole entry): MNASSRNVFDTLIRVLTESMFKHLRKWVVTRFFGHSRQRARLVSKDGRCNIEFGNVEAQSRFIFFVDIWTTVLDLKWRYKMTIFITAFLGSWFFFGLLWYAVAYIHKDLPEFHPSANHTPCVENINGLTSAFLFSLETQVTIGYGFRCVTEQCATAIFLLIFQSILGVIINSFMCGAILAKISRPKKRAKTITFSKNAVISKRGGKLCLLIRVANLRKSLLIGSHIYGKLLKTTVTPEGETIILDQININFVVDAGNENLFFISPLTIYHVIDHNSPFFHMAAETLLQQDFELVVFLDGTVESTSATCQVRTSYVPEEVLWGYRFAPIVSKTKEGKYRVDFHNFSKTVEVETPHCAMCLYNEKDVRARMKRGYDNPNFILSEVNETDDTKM
# procedure.text: Thallium Flux Assay (ROMK channel functional thallium flux, FLIPR-Tetra)
# condition.context: HEK293 cells stably expressing hROMK (hKir1.1)
observation.type: IC50 (nM)
Enter your answer as a number in nM; do not include the unit.

Short answer please: IC50, UniProtKB P48048, entry Cc1c([C@@H]2CN3CCN(C(=O)C4CCc5cc(-n6cnnn6)ncc54)C[C@H]3CN2)ccc(F)c1C#N (single isomer, unassigned) [Example 96A]
200

Look up IC50 with UniProtKB P48048 for this molecule: Cc1c([C@H]2CN3CCN(C(=O)C4CCc5cc(-n6cnnn6)ncc54)C[C@@H]3CO2)ccc(F)c1C#N (stereo partly drawn) [Example 41]
720

Please tell me: IC50 of N#Cc1c(F)ccc([C@H]2CN3CCN(C(=O)C4CCc5nc(-n6cnnn6)ccc54)C[C@H]3CO2)c1Cl (stereo partly drawn) [Example 29] , system UniProtKB P48048?
450

Tell me reported IC50 for Cc1c([C@H]2CN3CCN(C(=O)C4CCc5nc(-n6cnnn6)ccc54)C[C@@H]3CO2)ccc(F)c1C#N (stereo partly drawn) [Example 34] , tested with UniProtKB P48048.
120

API: value(readout= IC50, system= UniProtKB P48048, query= N#Cc1cc([C@@H]2CN3CCN(C(=O)C4CCc5nc(-n6cnnn6)ncc54)C[C@H]3CO2)ccc1F (stereo partly drawn) [Example 79] )
210

Tell me reported IC50 for Cc1c([C@@H]2CN3CCN(C(=O)C4CCc5cc(-n6cnnn6)cnc54)C[C@H]3CO2)ccc(F)c1C#N (stereo partly drawn) [Example 38] , tested with UniProtKB P48048.
900
